# System under test: Proteasome subunit beta (Trypanosoma cruzi)
# Procedure details: Trypanosoma cruzi proteasome chymotrypsin-like activity (TcProtChymo) assay. Also: in the data most compounds retested in dose-response had high values.
# Type: functional
# Set-up: scale not given: direction of the effect not stated beside the values
# Settings: 9.37 µM
What Percent Effect was measured for each of the following?
The response must be a number in % with no trailing unit.

Entry Cc1ccsc1CNC(=O)Cc1c(C)nc2c(c1C)c(=O)[nH]n2C has what Percent Effect?
5.25

Looking for the measured Percent Effect of CCc1cc(C)c(C(=O)N2CCCC2CC(=O)c2cnn(C)c2)o1 (configuration not stated) , can you help?
7.03

Please look up its Percent Effect: Cc1ccc(C(=O)N2CCSCC2)cc1NC(=O)Cn1cncn1
17.6

For the compound Cc1oc(C(=O)O)cc1S(=O)(=O)Nc1c(F)cccc1-n1cccn1 , what Percent Effect is on record?
11

Name the recorded Percent Effect for Cc1nc(C)n(C2CCCN(C(=O)Cc3n[nH]c4ccccc34)C2)n1 (configuration not stated) .
4.56

Name the recorded Percent Effect for COc1cccc(CN(C)C(=O)Nc2ccc3c(c2)OCCO3)c1 .
26.6

Param item = CC(=O)NC(C)CC(=O)NCc1cccnc1Oc1ccccc1C (configuration not stated) ; retrieve measured Percent Effect.
11.6

What value of Percent Effect has been recorded for this entry: Cn1cccc1C(=O)N1CCC2(CC1)CN(c1ccccn1)CCO2
5.49

Entry COc1ccccc1C(O)CNC(=O)Nc1ncccc1C (configuration not stated) : reported Percent Effect = ?
8.27

What Percent Effect value was documented for this compound, Cc1csc(N2CCN(C(=O)CCC(=O)c3ccc(C)s3)CC2)n1 ?
13.5

Name the reported Percent Effect value associated with the compound O=C(Cc1csc(-c2ccco2)n1)N1CCN(c2cnccn2)CC1
17.5

Item O=C(Cn1nc2c(cc1=O)CCCC2)N[C@@H](C(=O)O)c1ccccc1 has what recorded Percent Effect?
12.2

* * *

Assignment: determine reported Percent Effect for the given compounds.
# System under test: Sialic acid-binding Ig-like lectin 9 (Homo sapiens)
# Procedure details: Hs-Siglec9 ALPHAscreen SOP 20170721
# Parameters: scale not given: direction of the effect not stated beside the values
# Settings: 10 µM

I would be grateful if you could share the reported Percent Effect for CC(C)n1ncc2c1NC(=O)CC21C(=O)Nc2c(Cl)cc(Cl)cc21 (configuration not stated) .
6.18%

So what's the measured Percent Effect for this one? CCOC(=O)c1sc2ccsc2c1CNC(=O)CC
18.5%

Would you kindly share the measured Percent Effect for Cc1csc(N2CCN(Cc3ccccn3)CC2C)n1 (configuration not stated) ?
-2.48%

Which Percent Effect value belongs to COc1ccccc1CC(=O)N1CCC(NCc2cc[nH]c2)CC1 ?
-3.31%

Which Percent Effect value is on record for O=C(CC1CCCC1)NCCn1ccc(-c2ccncc2)n1 ?
6.39%

I would be grateful if you could share the reported Percent Effect for COCC1CN(Cc2cc(C)on2)Cc2cn(C)nc21 (configuration not stated) .
12.2%

Fill blank: measured Percent Effect of the compound Cc1nc(C2CCN(C(=O)c3ccc(=O)n(C)c3)CC2)c2sccn12 is ____.
3.19%

Which measured Percent Effect value corresponds to CC(C)n1ccc(-c2cc(C(=O)N3CCCC3)c3ccccn23)n1 ?
-12.1%

What value of measured Percent Effect is listed for CCCC(NC(=O)c1ccc(OC)cc1F)c1nnn[nH]1 (configuration not stated) ?
11.5%

Record request: Percent Effect value, item CCn1c(C(=O)N2CCN(C(=O)NC(C)C)CC2)cc2ccccc21
-4.68%

Reported Percent Effect, compound COCCC(=O)N1CCc2cc(Cl)cc(Cl)c2C1 : ____
19.2%

Which Percent Effect is reported for this compound? CC(=O)N(Cc1ncc(C)o1)C1CCN(Cc2noc(C)n2)C1 (configuration not stated)
-2.16%

Look at this compound and give its reported Percent Effect. O=C(CCCc1nc2ccccc2[nH]1)N1CCCC(n2cccn2)C1 (configuration not stated)
5.64%

# lookup: Percent Effect of CC(NC(=O)CNCCn1cccn1)c1ccc2c(c1)CCCC2 (configuration not stated)
15.8%

Need Percent Effect of CCCN1CCCn2nc(CNC(=O)CCc3scnc3C)cc2C1 , thanks.
19.9%

Quick one: Percent Effect for CCC(CC)c1cc(CNC(=O)N2CCOC(C)C2)on1 (configuration not stated) ?
-6.02%

Can you look up the measured Percent Effect of CC(=O)NCCN1CCC(c2cccs2)CC1 for me?
1.43%
